system: HEK293; assay: Cytotoxicity against HEK293 cells; format: cell-based; details: human, hek293
measure: CC50

So what does the record say about CC50 for `COLISTIN` ? > 64 µM

* * *

system: Acinetobacter baumannii; test: Antibacterial activity against Acinetobacter baumannii ATCC 19606 assessed as bacterial growth inhibition; format: functional; conditions: ATCC 19606 = CIP 70.34 = JCM 6841
measure: MIC (µg/mL)
Your answer should be a plain number; it is taken to be in µg/mL.

Check out these entries, answers already filled in.
C/C=C1\NC(=O)C(NC(=O)CCCCCCCCC)C(O)CNC(=O)C(C(O)CN)NC(=O)C(C(O)CN)NC(=O)[C@H](CCCNC(=N)N)NC(=O)[C@H](CC(C)C)NC(=O)[C@H](CCN)NC1=O (some centres not stated)    2
C/C=C1\NC(=O)C(NC(=O)CCCCCCCCC(=O)OCc2ccccc2)C(O)CNC(=O)C(C(O)CN)NC(=O)C(C(O)CN)NC(=O)[C@H](CCCNC(=N)N)NC(=O)[C@H](CC(C)C)NC(=O)[C@H](CCN)NC1=O (some centres not stated)    4
C/C=C1\NC(=O)C(NC(=O)Cc2c(C)n(C(=O)c3ccc(Cl)cc3)c3ccc(OC)cc23)C(O)CNC(=O)C(C(O)CN)NC(=O)C(C(O)CN)NC(=O)[C@H](CCCNC(=N)N)NC(=O)[C@H](CC(C)C)NC(=O)[C@H](CCN)NC1=O (some centres not stated)    32
C/C=C1\NC(=O)C(NC(=O)c2cc3cc(Cl)ccc3o2)C(O)CNC(=O)C(C(O)CN)NC(=O)C(C(O)CN)NC(=O)[C@H](CCCNC(=N)N)NC(=O)[C@H](CC(C)C)NC(=O)[C@H](CCN)NC1=O (some centres not stated)    2
C/C=C1\NC(=O)C(NC(=O)COc2ccc(/C=C/C(=O)OC(C)(C)C)cc2)C(O)CNC(=O)C(C(O)CN)NC(=O)C(C(O)CN)NC(=O)[C@H](CCCNC(=N)N)NC(=O)[C@H](CC(C)C)NC(=O)[C@H](CCN)NC1=O (some centres not stated)    2

// below: MIC requested for another molecule
So what does the record say about MIC for C/C=C1\NC(=O)C(NC(=O)c2ccc(Oc3ccccc3CCCC)cc2)C(O)CNC(=O)C(C(O)CN)NC(=O)C(C(O)CN)NC(=O)[C@H](CCCNC(=N)N)NC(=O)[C@H](CC(C)C)NC(=O)[C@H](CCN)NC1=O (some centres not stated) ? 2
